Catalogue of compounds with associated solubility at 16 h
- assay.info: Solubility test (1% DMSO addition, pH 6.8 artificial intestinal juice)
- Assay type: physicochemical
- measurement.context: pH 6.8 artificial intestinal juice with 1% DMSO, kinetic from dmso stock, 16 hours at 25° C.

{"compound": "CS(=O)(=O)CC(=O)Nc1c2c(nn1-c1ccc(F)c(F)c1)C[C@]1(CCOc3cc(CCC(F)(F)F)ccc31)NC2=O [II-225]", "solubility at 16 h": "45.1 µM"}
{"compound": "Cc1ccc(-n2nc3c(c2NC(=O)CS(C)(=O)=O)C(=O)N[C@@]2(CCc4cc(OCC(F)(F)F)ccc42)C3)nc1 [Compound I-236]", "solubility at 16 h": "> 50 µM"}
{"compound": "CS(=O)(=O)CC(=O)Nc1c2c(nn1-c1ccc(C#N)cn1)C[C@@]1(CCc3cc(OCC(F)(F)F)ccc31)NC2=O [Compound I-167]", "solubility at 16 h": "> 50 µM"}
{"compound": "Cc1ccc(-n2nc3c(c2NC(=O)CS(C)(=O)=O)C(=O)N[C@@]2(CCOc4cc(OCC(F)(F)F)ccc42)C3)nc1 [Compound I-275]", "solubility at 16 h": "> 50 µM"}
{"compound": "O=C1N[C@@]2(CCOc3cc(OCCCC(F)(F)F)ccc32)Cc2nn(CCC3CC3)c(-c3nn[nH]n3)c21 [Compound I-200]", "solubility at 16 h": "> 50 µM"}
{"compound": "CS(=O)(=O)CC(=O)Nc1c2c(nn1CCCOC(F)(F)F)C[C@@]1(CCc3cc(OCC(F)(F)F)cc(F)c31)NC2=O [II-93]", "solubility at 16 h": "> 50 µM"}
{"compound": "CS(=O)(=O)CC(=O)Nc1c2c(nn1-c1ccc(C(F)F)cc1)C[C@]1(CCc3cc(OCC(F)(F)F)ccc31)NC2=O [II-174]", "solubility at 16 h": "32.4 µM"}
{"compound": "CS(=O)(=O)CC(=O)Nc1c2c(nn1-c1ccc(C#N)cn1)C[C@](c1ccc(OCC(F)(F)F)cc1F)(C(F)(F)F)NC2=O [Compound I-170]", "solubility at 16 h": "> 50 µM"}
{"compound": "CS(=O)(=O)CC(=O)Nc1c2c(nn1-c1ccc(C#N)cn1)C[C@]1(CCc3cc(OCC(F)(F)F)ccc31)NC2=O [Compound I-190]", "solubility at 16 h": "> 50 µM"}
